Cited source: BindingDB's records for patent US20250313563

Record set of IC50 for target or system Glycogen synthase kinase-3 alpha (Homo sapiens, UniProt P49840).
measureName: IC50

INSERT INTO assay_data (compound, target, measurename, result) VALUES
  ('CC[C@@]1(c2cccc(-c3ccnc4ccccc34)c2)C2=CN=NC2NC2=C1C(=O)CC(C)(C)C2 (stereo partly drawn)', 'Glycogen synthase kinase-3 alpha (Homo sapiens, UniProt P49840)', 'IC50', '< 100 nM'),
  ('COC[C@H]1C[C@@]2(C1)C1=C(N=NC1)NC1=C2C(=O)CC(C)(C)C1', 'Glycogen synthase kinase-3 alpha (Homo sapiens, UniProt P49840)', 'IC50', '100 to 1000 nM'),
  ('CC1(C)CC(=O)C2=C(C1)NC1=C(CN=N1)C21COC2(CN(C(=O)CC3CCCC3)C2)C1 (stereo not drawn)', 'Glycogen synthase kinase-3 alpha (Homo sapiens, UniProt P49840)', 'IC50', '< 100 nM'),
  ('CC1(C)CC(=O)C2=C(C1)NC1=C(CN=N1)C21CCN(S(=O)(=O)c2cnc3n2CCCC3)CC1', 'Glycogen synthase kinase-3 alpha (Homo sapiens, UniProt P49840)', 'IC50', '< 100 nM'),
  ('CCC(C)C(=O)N1CC2(C1)CC1(CO2)C2=C(N=NC2)NC2=C1C(=O)CC(C)(C)C2 (stereo not drawn)', 'Glycogen synthase kinase-3 alpha (Homo sapiens, UniProt P49840)', 'IC50', '< 100 nM'),
  ('CC[C@]1(c2cccc(-c3c(F)cncc3F)c2)C2=CN=NC2NC2=C1C(=O)NC(C)(C)C2 (stereo partly drawn)', 'Glycogen synthase kinase-3 alpha (Homo sapiens, UniProt P49840)', 'IC50', '1000 to 5000 nM'),
  ('CC[C@@]1(c2cccc(-c3ccnn3C(C)C)c2)C2=CN=NC2NC2=C1C(=O)CC(C)(C)C2 (stereo partly drawn)', 'Glycogen synthase kinase-3 alpha (Homo sapiens, UniProt P49840)', 'IC50', '< 100 nM'),
  ('CC[C@]1(c2cccc(-c3cnn(C)c3C)c2)C2=C(CC(C)(C)NC2=O)NC2N=NC(C)=C21 (stereo partly drawn)', 'Glycogen synthase kinase-3 alpha (Homo sapiens, UniProt P49840)', 'IC50', '> 5000 nM'),
  ('CC1(C)CC(=O)C2=C(C1)NC1=C(CN=N1)C21CN(CC2CCOCC2)C1', 'Glycogen synthase kinase-3 alpha (Homo sapiens, UniProt P49840)', 'IC50', '> 5000 nM'),
  ('CC(C)(C)CC1N=NC2=C1[C@](C)(c1cc(S(C)(=O)=O)ccc1F)C1=C(CC(C)(C)CC1=O)N2 (stereo partly drawn)', 'Glycogen synthase kinase-3 alpha (Homo sapiens, UniProt P49840)', 'IC50', '1000 to 5000 nM'),
  ('CC[C@@]1(c2cccc(-c3ccnc(C)c3)c2)C2=CN=NC2NC2=C1C(=O)CC(C)(C)C2 (stereo partly drawn)', 'Glycogen synthase kinase-3 alpha (Homo sapiens, UniProt P49840)', 'IC50', '1000 to 5000 nM'),
  ('CC[C@]1(c2cccc(C(F)(F)F)c2)C2=CN=NC2NC2=C1C(=O)N[C@@H](c1ccccc1)C2 (stereo partly drawn)', 'Glycogen synthase kinase-3 alpha (Homo sapiens, UniProt P49840)', 'IC50', '1000 to 5000 nM'),
  ('CC(C)(C)CC1N=NC2=C1[C@@](C)(c1cccc(S(=O)(=O)C(F)(F)F)c1)C1=C(CC(C)(C)CC1=O)N2 (stereo partly drawn)', 'Glycogen synthase kinase-3 alpha (Homo sapiens, UniProt P49840)', 'IC50', '> 5000 nM');

====

Record set of IC50 for target or system Glycogen synthase kinase-3 beta (Homo sapiens, UniProt P49841).
measureName: IC50

INSERT INTO assay_data (molecule, result) VALUES
  ('CC[C@]1(c2cccc(N(C)C(C)=O)c2)C2=CN=NC2NC2=C1C(=O)CC(C)(C)C2 (stereo partly specified)', '< 0.1 µM'),
  ('CC[C@@]1(c2cccc(-c3ccnc(OC)c3F)c2)C2=CN=NC2NC2=C1C(=O)NC(C)(C)C2 (stereo partly specified)', '> 5 µM'),
  ('CC[C@]1(c2cccc(C(F)(F)F)c2)C2=CN=NC2NC2=C1C(=O)N[C@@H](c1ccccc1)C2 (stereo partly specified)', '> 5 µM'),
  ('CC1(C)CC(=O)C2=C(C1)NC1=C(CN=N1)[C@@]21CCO[C@@H](C(F)(F)F)C1', '> 5 µM'),
  ('COc1cncc(F)c1-c1cccc([C@]2(C)C3=C(CC(C)(C)CC3=O)NC3=C2C(CC(C)(C)C)N=N3)c1 (stereo partly specified)', '0.1 to 1 µM'),
  ('CC1(C)CC(=O)C2=C(C1)NC1=C(CN=N1)C21CS(=O)(=O)C1', '> 5 µM');

====

Record set of IC50 for target or system UniProt:P49840.
measureName: IC50

INSERT INTO measurements (compound, measurename, result) VALUES
  ('CC(=O)N1CC2(C1)C[C@]1(CO2)C2=C(N=NC2)NC2=C1C(=O)CC(C)(C)C2 [US20250313563, Compound 926872]', 'IC50', '0.1 to 1 µM'),
  ('CCC1(c2cccc(-c3cnnc(C)c3)c2)C2=CN=NC2NC2=C1C(=O)NC(C)(C)C2 (stereo not drawn) [US20250313563, Compound 943496]', 'IC50', '< 0.1 µM'),
  ('CC[C@@]1(c2cccc(-c3ccnc(C)c3)c2)C2=CN=NC2NC2=C1C(=O)NC(C)(C)C2 (stereo partly drawn) [US20250313563, Compound 927326]', 'IC50', '0.1 to 1 µM'),
  ('CC[C@@]1(c2cccc([C@H]3CCOC(C)(C)C3)c2)C2=CN=NC2NC2=C1C(=O)CC(C)(C)C2 (stereo partly drawn) [US20250313563, Compound 912090]', 'IC50', '0.1 to 1 µM'),
  ('CC[C@@]1(c2cccc(-c3cc[n+](O)cc3[S@@+](C)[O-])c2)C2=CN=NC2NC2=C1C(=O)CC(C)(C)C2 (stereo partly drawn) [US20250313563, Compound 947571]', 'IC50', '0.1 to 1 µM'),
  ('CC[C@]1(c2cccc(-c3ccncc3)c2)C2=CN=NC2NC2=C1C(=O)C[C@H](C)C2 (stereo partly drawn) [US20250313563, Compound 874318]', 'IC50', '< 0.1 µM'),
  ('CC[C@]1(c2cccc(-c3c(F)cncc3Cl)c2)C2=CN=NC2NC2=C1C(=O)NC(C)(C)C2 (stereo partly drawn) [US20250313563, Compound 948363]', 'IC50', '1 to 5 µM'),
  ('CC1(C)CC(=O)C2=C(C1)NC1=C(CN=N1)C21CCN(S(=O)(=O)CC2CC2)CC1 [US20250313563, Compound 909207]', 'IC50', '< 0.1 µM'),
  ('CC1(C)CC(=O)C2=C(C1)NC1N=NC=C1[C@@]21CCCc2ccccc21 (stereo partly drawn) [US20250313563, Compound 930565]', 'IC50', '1 to 5 µM'),
  ('CC[C@@]1(c2ccccc2)C2=CN=NC2NC2=C1C(=O)C[C@H](c1ccccc1)C2 (stereo partly drawn) [US20250313563, Compound 791264]', 'IC50', '0.1 to 1 µM'),
  ('CC[C@]1(c2cccc(-c3ccnc(C)c3)c2)C2=CN=NC2NC2=C1C(=O)C[C@]1(CCOC1)C2 (stereo partly drawn) [US20250313563, Compound 947412]', 'IC50', '1 to 5 µM'),
  ('CN1CCC2(C1)C1=C(N=NC1)NC1=C2C(=O)CC(C)(C)C1 (stereo not drawn) [US20250313563, Compound 841867]', 'IC50', '> 5 µM'),
  ('CCn1ccc(S(=O)(=O)N2CCC3(CC2)C2=C(N=NC2)NC2=C3C(=O)CC(C)(C)C2)n1 [US20250313563, Compound 945671]', 'IC50', '< 0.1 µM');

====

Target: Glycogen synthase kinase-3 beta (Homo sapiens, UniProt P49841)
Sequence (P49841 whole entry): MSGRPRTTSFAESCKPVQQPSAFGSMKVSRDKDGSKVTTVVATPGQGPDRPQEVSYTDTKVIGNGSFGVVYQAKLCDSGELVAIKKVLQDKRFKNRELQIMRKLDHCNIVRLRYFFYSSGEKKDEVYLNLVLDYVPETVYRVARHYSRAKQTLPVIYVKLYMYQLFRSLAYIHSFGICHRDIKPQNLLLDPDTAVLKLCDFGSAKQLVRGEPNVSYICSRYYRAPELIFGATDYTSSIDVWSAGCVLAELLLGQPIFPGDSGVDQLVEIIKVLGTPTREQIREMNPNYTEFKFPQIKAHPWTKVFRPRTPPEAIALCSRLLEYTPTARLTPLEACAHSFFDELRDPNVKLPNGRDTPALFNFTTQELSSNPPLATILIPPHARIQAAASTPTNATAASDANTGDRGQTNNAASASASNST
pIC50: −log10 of the molar value.
measureName: pIC50

INSERT INTO measurements (compound, measurename, result) VALUES
  ('CCN1CC2(C1)C1=C(N=NC1)NC1=C2C(=O)CC(C)(C)C1', 'pIC50', '< 5.30'),
  ('C[C@H]1C[C@@]2(CCO1)C1=C(N=NC1)NC1=C2C(=O)CC(C)(C)C1', 'pIC50', '6.00 to 7.00'),
  ('COc1cncc(S(=O)(=O)N2CCC3(CC2)C2=C(N=NC2)NC2=C3C(=O)CC(C)(C)C2)c1', 'pIC50', '> 7.00'),
  ('CC1(C(F)(F)F)CC(=O)C2=C(C1)NC1=C(CN=N1)C21CCOCC1 (configuration not stated)', 'pIC50', '6.00 to 7.00'),
  ('CC[C@@]1(c2cccc(C(F)(F)F)c2)C2=CN=NC2NC2=C1C(=O)N(c1cnn(C)c1C)CC2 (some centres not stated)', 'pIC50', '6.00 to 7.00'),
  ('CC[C@]1(c2cccc(N3C[C@@H](C)[C@@H](C)C3)c2)C2=CN=NC2NC2=C1C(=O)CC(C)(C)C2 (some centres not stated)', 'pIC50', '6.00 to 7.00'),
  ('CC[C@]1(c2cccc(-c3ccnc4cc(F)c(F)cc34)c2)C2=CN=NC2NC2=C1C(=O)NC(C)(C)C2 (some centres not stated)', 'pIC50', '< 5.30');
